B1: library; numbered along this chain (parent)
chain: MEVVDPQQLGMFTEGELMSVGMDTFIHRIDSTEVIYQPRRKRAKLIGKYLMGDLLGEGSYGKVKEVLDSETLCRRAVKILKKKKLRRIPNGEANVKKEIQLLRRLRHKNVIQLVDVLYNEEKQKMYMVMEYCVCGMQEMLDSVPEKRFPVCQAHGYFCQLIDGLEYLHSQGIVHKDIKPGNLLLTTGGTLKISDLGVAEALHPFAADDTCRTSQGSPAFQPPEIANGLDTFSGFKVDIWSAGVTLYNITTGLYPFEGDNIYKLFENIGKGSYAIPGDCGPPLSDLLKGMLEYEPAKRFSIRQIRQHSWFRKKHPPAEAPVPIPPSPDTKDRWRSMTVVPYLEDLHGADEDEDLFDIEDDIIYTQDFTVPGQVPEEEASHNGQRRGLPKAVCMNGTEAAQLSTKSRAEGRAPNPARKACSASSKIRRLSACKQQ

# Variants of: B1
# assay_details: STK11 functional score (HeLa growth suppression), rescaled enrichment; synonymous median = 1, nonsense median = 0 (normalised score)
# reported_conditions: with HeLa; variant type: missense
Consider the following variants and their measured STK11 functional score readings.

variant_key	STK11 functional score
T13A	1.5
A93H	1.66
A397V	0.799
S59C	0.952
I361S	1.46
S193N	1.61
E120A	0.817
R103S	1.02
P319L	1.3
E357D	0.56
K178G	0.325
N109S	0.492
T363F	0.261
N380E	1.48
R147G	1.07
L290W	0.691
E98Y	0.182
I267P	0.26
G15D	1.72
R333V	1.15
E376G	1.18
V77P	0.512
E375G	1.49
A43Q	-0.492
R415E	1.48
N181M	-0.246
P315V	1.17
Y49P	0.101
Y272P	1.38
L72K	1.08
L282A	0.846
V3I	1.06
N109K	1.14
Q302V	1.21
N119Y	1.12
Q364D	0.845
E199Y	1.04
E120Q	1.16
P413Y	1.47
Q214E	1.36
G52L	1.37
G279S	1.25
